- Assay Notes: Partition coefficient in octanol-phosphate buffer at pH 7.4
- Format: physicochemical
Observation Type: logD
Enter the number alone.

Challenge: Supply reported logD belonging to this molecule: COc1cccc2c1C(=O)c1c(O)c3c(c(O)c1C2=O)C[C@@](O)(C(=O)CO)C[C@@H]3OC1CC(NCCO)C(O)C(C)O1 (stereo partly specified)
Response given: 0.19

---

- Assay Notes: Compound was evaluated for its stability after 22 hr in solution at pH of 4
- Assay type: physicochemical
- Condition Label: pH 4, read-out: Recovery
Observation Type: remaining at 22 h (%)
Unit % implied. Number only.

Challenge: Supply reported remaining at 22 h belonging to this molecule: COc1cccc2c1C(=O)c1c(O)c3c(c(O)c1C2=O)C[C@@](O)(C(=O)CO)C[C@@H]3OC1CC(N2CCOCC2)C(O)C(C)O1 (stereo partly specified)
Response given: 88

---

- Assay Notes: Compound was evaluated for its stability after 22 hr in solution at pH of 2
- Format: physicochemical
- Condition Label: pH 2, read-out: Recovery
Observation Type: remaining at 22 h
Note: state the figure and append the unit.

COc1cccc2c1C(=O)c1c(O)c3c(c(O)c1C2=O)C[C@@](O)(C(=O)CO)C[C@@H]3OC1CC(N2CCOCC2)C(O)C(C)O1 (some centres not stated): 96%

Challenge: Supply reported remaining at 22 h belonging to this compound: COc1cccc2c1C(=O)c1c(O)c3c(c(O)c1C2=O)C[C@@](O)(C(=O)CO)C[C@@H]3OC1CC(N2CCOCC2C#N)C(O)C(C)O1 (some centres not stated)
Response given: 10%

---

- Test system: L1210
- Assay Notes: Compound was evaluated for the inhibition of DNA synthesis in leukemia L1210 cells
- Type: functional
- Condition Label: Mus musculus, read-out: ED50 (the source's name)
Observation Type: pEC50
The value called pEC50 is obtained by taking minus log10 of the concentration in mol/L.

Challenge: Supply reported pEC50 belonging to this compound: COc1cccc2c1C(=O)c1c(O)c3c(c(O)c1C2=O)C[C@@](O)(C(=O)CO)C[C@@H]3O[C@H]1C[C@H](N)[C@H](O)[C@H](C)O1
Response given: 5.80

Challenge: Supply reported pEC50 belonging to this compound: COc1cccc2c1C(=O)c1c(O)c3c(c(O)c1C2=O)C[C@@](O)(C(=O)CO)C[C@@H]3OC1CC(N2CCOCC2C#N)C(O)C(C)O1 (some centres undefined)
Response given: 8.52

Challenge: Supply reported pEC50 belonging to this compound: COc1cccc2c1C(=O)c1c(O)c3c(c(O)c1C2=O)C[C@@](O)(C(=O)CO)C[C@@H]3OC1CC(NCCO)C(O)C(C)O1 (some centres undefined)
Response given: 5.28

Challenge: Supply reported pEC50 belonging to this compound: COc1cccc2c1C(=O)c1c(O)c3c(c(O)c1C2=O)C[C@@](O)(C(=O)CO)C[C@@H]3OC1CC2C(OC(CO)N2CCO)C(C)O1 (some centres undefined)
Response given: 6.19

---

Measured pEC50, listed per entry for reference.
- System: L1210
- Assay Notes: Compound was evaluated for the inhibition of RNA synthesis in leukemia L1210 cells
- Assay type: functional
- Condition Label: Mus musculus, read-out: ED50 (the source's name)
The value called pEC50 is obtained by taking minus log10 of the concentration in mol/L.

// below: answered compounds
COc1cccc2c1C(=O)c1c(O)c3c(c(O)c1C2=O)C[C@@](O)(C(=O)CO)C[C@@H]3OC1CC(N2CCOCC2C#N)C(O)C(C)O1 (some centres undefined): 9.28
COc1cccc2c1C(=O)c1c(O)c3c(c(O)c1C2=O)C[C@@](O)(C(=O)CO)C[C@@H]3OC1CC(NCCO)C(O)C(C)O1 (some centres undefined): 6.09
COc1cccc2c1C(=O)c1c(O)c3c(c(O)c1C2=O)C[C@@](O)(C(=O)CO)C[C@@H]3OC1CC2C(OC(CO)N2CCO)C(C)O1 (some centres undefined): 6.92

Challenge: Supply reported pEC50 belonging to this compound: COc1cccc2c1C(=O)c1c(O)c3c(c(O)c1C2=O)C[C@@](O)(C(=O)CO)C[C@@H]3O[C@H]1C[C@H](N)[C@H](O)[C@H](C)O1 [DOXORUBICIN]
Response given: 6.24

Data origin: ChEMBL document CHEMBL1123258
